Value source: ChEMBL document CHEMBL1177718

Assay: Metabolic stability in dog liver S9 fraction assessed as compound remaining at 10 uM after 30 mins by HPLC analysis in absence of NADP
Format: ADME, subcellular, Canis lupus familiaris
Settings: read-out: Stability
Value type: remaining at 0.5 h, 10 µM (%)
Numbers only, in %.

Req: Request the reported remaining at 0.5 h, 10 µM associated with C[C@@]1(O)[C@H](O)[C@@H](COP(=O)(N[C@@H](Cc2ccccc2)C(=O)OCc2ccccc2)Oc2cccc3ccccc23)O[C@H]1n1cnc2c(=O)[nH]c(N)nc21 (stereo partly specified)
Resp: 15

* * *

Assay: Cytotoxicity against human Caco-2 cells after 72 hrs by celltiter-glo assay
Format: cell-based
Value type: CC50 at 72 h

Req: Request the reported CC50 at 72 h associated with C[C@H](NP(=O)(OC[C@H]1O[C@@H](n2cnc3c(=O)[nH]c(N)nc32)[C@](C)(O)[C@@H]1O)Oc1cccc2ccccc12)C(=O)O[C@@H](C)c1ccccc1 (stereo partly specified)
Resp: > 100 µM

* * *

Assay: Cytotoxicity against human HEK293 cells after 72 hrs by celltiter-glo assay
Type: cell-based
Value type: CC50 at 72 h

Req: Request the reported CC50 at 72 h associated with C[C@H](NP(=O)(OC[C@H]1O[C@@H](n2cnc3c(=O)[nH]c(N)nc32)[C@](C)(O)[C@@H]1O)Oc1cccc2ccccc12)C(=O)O[C@@H](C)c1ccccc1 (stereo partly specified)
Resp: > 100 µM

* * *

Assay: Metabolic stability in mouse plasma assessed as compound remaining at 1 ug/ml after 30 mins
Type: ADME, cell-free
Details: read-out: Stability
Value type: remaining at 0.5 h, 1 ug/ml (%)
Give bare numbers, in %.

CC(OC(=O)[C@@H](NP(=O)(OC[C@H]1O[C@@H](n2cnc3c(=O)[nH]c(N)nc32)[C@](C)(O)[C@@H]1O)Oc1cccc2ccccc12)C(C)C)c1ccccc1 (stereo partly drawn) : 100
CC(C)[C@H](NP(=O)(OC[C@H]1O[C@@H](n2cnc3c(=O)[nH]c(N)nc32)[C@](C)(O)[C@@H]1O)Oc1cccc2ccccc12)C(=O)OC1CCCCC1 (stereo partly drawn) : 95

Now turn to the next molecule.
Req: Request the reported remaining at 0.5 h, 1 ug/ml associated with COC(=O)[C@H](C)NP(=O)(OC[C@H]1O[C@@H](n2cnc3c(=O)[nH]c(N)nc32)[C@](C)(O)[C@@H]1O)Oc1cccc2ccccc12 (stereo partly drawn)
Resp: 1.7

* * *

Assay: Metabolic stability in human liver S9 fraction assessed as compound remaining at 10 uM after 60 mins by HPLC analysis in presence of NADP
Type: ADME, subcellular
Conditions: read-out: Stability
For each record, write down the corresponding remaining at 1 h, 10 µM.
Numbers only, in %.

Record excerpt, results attached:
CC(C)OC(=O)[C@H](C)NP(=O)(OC[C@H]1O[C@@H](n2cnc3c(=O)[nH]c(N)nc32)[C@](C)(O)[C@@H]1O)Oc1cccc2ccccc12 (some centres not stated) : 27
COC(=O)[C@H](C)NP(=O)(OC[C@H]1O[C@@H](n2cnc3c(=O)[nH]c(N)nc32)[C@](C)(O)[C@@H]1O)Oc1cccc2ccccc12 (some centres not stated) : 20
C[C@H](NP(=O)(OC[C@H]1O[C@@H](n2cnc3c(=O)[nH]c(N)nc32)[C@](C)(O)[C@@H]1O)Oc1ccc2ccccc2c1)C(=O)OCc1ccccc1 (some centres not stated) : 14
C[C@H](NP(=O)(OC[C@H]1O[C@@H](n2cnc3c(=O)[nH]c(N)nc32)[C@](C)(O)[C@@H]1O)Oc1cccc2ccccc12)C(=O)OCC(C)(C)C (some centres not stated) : 7
CC[C@H](C)[C@H](NP(=O)(OC[C@H]1O[C@@H](n2cnc3c(=O)[nH]c(N)nc32)[C@](C)(O)[C@@H]1O)Oc1cccc2ccccc12)C(=O)OCc1ccccc1 (some centres not stated) : 29

Record remaining at 1 h, 10 µM for all entries; do not skip any.
1. CC(C)[C@H](NP(=O)(OC[C@H]1O[C@@H](n2cnc3c(=O)[nH]c(N)nc32)[C@](C)(O)[C@@H]1O)Oc1cccc2ccccc12)C(=O)OCc1ccccc1 (some centres not stated)
2. COC(=O)[C@H](CCSC)NP(=O)(OC[C@H]1O[C@@H](n2cnc3c(=O)[nH]c(N)nc32)[C@](C)(O)[C@@H]1O)Oc1cccc2ccccc12 (some centres not stated)

Resp:
0
3
